System: SK-MEL-5 melanoma
Experiment: NCI-60 one-dose screen, 48 h
Settings: 10 µM unless noted
The panel holds about 83,000 compounds, 20% with a hit somewhere; the sample as a whole holds those more often. Active and inactive are the calls of the source. How the source made its calls: active means growth percent below 10; inactive means the rest.
Respond only with the outcome that fits, drawn from true (1) for active, false (0) for inactive

Task: Test call, this compound: COc1cc(OCc2cccc(-c3ccc(C(O)c4nccs4)cc3)c2C)cc(OC)c1CNCCNC(C)=O (stereo unspecified)
Output: false (0)

Task: Next record, please: COc1cc(C(=O)N/N=C/c2cc3cc(OCc4ccccc4)ccc3nc2OC)cc(OC)c1OC
Output: false (0)

Task: Next entry: S=c1nc(-c2ccccc2)oc(=NC2CCCCC2)n1C1CCCCC1
Output: false (0)

Task: Again, but for N#Cc1c(Nc2cccc(Cl)c2)sc(C(=O)c2cc3cc(Cl)ccc3o2)c1N
Output: false (0)

Task: Similarly, O=c1cc(SCc2ccccc2)nc[nH]1 ?
Output: false (0)

Task: What about CCOC(=O)NCCc1ccccc1 ?
Output: false (0)

Task: Continue with O=c1c2cc(F)ccc2sc2c(NCCCNCCO)nc3ccccc3c12
Output: false (0)

Task: Next up: CN1C(=O)CNC(=O)[C@H](NC(=O)c2nc3ccccc3cc2O)CSSC[C@H]1C(=O)NCCCc1nc2ccccc2cc1O
Output: false (0)

Task: Could you do the same for O=S(=O)(NCCCNc1cc(-c2c(-c3cccc(O)c3)nc3sccn23)ccn1)c1cccc2ccccc12 , please?
Output: false (0)

Task: Also CCS(=O)(=O)c1ncnc2nc[nH]c12 ?
Output: false (0)

Task: And CCCCC[C@H](O)C/C=C1/C(=O)C=C[C@@H]1C/C=C\CCCC(=O)O ?
Output: false (0)

Task: Query OC(COc1ccccc1Cl)CN1CCN(c2cccc(Cl)c2)CC1 (stereo unspecified) next
Output: false (0)

Task: Same question, CCN(CC)CCCNc1nc2ccccc2c2c(=O)c3cc(Cl)ccc3sc12 this time
Output: false (0)

Task: What do we get for O=C(N/N=C/[C@H](O)[C@H](O)[C@H](O)CO)c1ccc(NC(=O)c2cccnc2)cc1 ?
Output: false (0)

Task: Also COc1ccc(-c2nc(NN)c3c(C)nn(-c4ccc(F)cc4)c3n2)cc1 , if possible.
Output: false (0)

Task: Next compound: CCOC(=O)c1[nH]c(C)c(C(=O)OCc2ccccc2C#N)c1C
Output: false (0)

Task: Please do the same for Oc1ccc(-c2nc3ccc4[nH]ncc4c3c3c2CCCC3)c2cccnc12 as well.
Output: true (1)

Task: CN1CCN(c2ccc(-c3cnc4c(-c5csc6ccccc56)cnn4c3)cc2)CC1 , same question.
Output: true (1)

Task: Okay, and COc1cccc2c(=O)c3c(sc12)c(N1CCNCC1)nc1ccccc13 ?
Output: false (0)

Task: What do we get for CCCCn1c(=O)c(-c2cc(-c3ccc(Cl)cc3)nc(-c3ccc(Cl)cc3)c2)cc2cc(Cl)ccc21 ?
Output: false (0)

Task: Moving on to CCC(=O)Nc1ccc(-c2nc(-c3cccc(OC)c3)c(-c3ccnc(Br)c3)[nH]2)cc1
Output: false (0)

====

Tested on: CAKI-1 renal
Test: NCI-60 one-dose screen, 48 h
Settings: 10 µM unless noted
About 83,000 compounds went through this panel and 20% of them were active in at least one assay; those are over-represented in the sample as a whole. The source made the active and inactive calls. How the source made its calls: active means growth percent below 10; inactive means the rest.
# output must be one of yes (active), no (inactive)

Task: Write down the call the test reported for this molecule. Item: c1ccc2cc(C[n+]3ccn(CCCCCCn4cc[n+](Cc5ccc6ccccc6c5)c4)c3)ccc2c1
Output: no

Task: Also, COc1ccc(-c2nc(NCCO)[nH]c(=O)c2C#N)cc1 please.
Output: no

Task: Now try NC(=O)Nc1ccc2ncnc(Nc3ccc(Cl)cc3)c2c1 .
Output: no

Task: Ok, now COc1ccc(NC2=C(Br)C(=O)C(C)=C(C)C2=O)cc1
Output: no

Task: How about CCN(CC)c1ccc(C2=NN(C(C)=O)C(c3cc(OC)c(OC)c(OC)c3)C2)cc1 (configuration not stated) ?
Output: no

Task: Same question, Oc1ccc(CCl)c2cccnc12 this time
Output: no

Task: Now the same for CCCCCCCCCCCCCCCCCC1OCC(COC(=O)O[C@]2(CC)C(=O)OCc3c2cc2n(c3=O)Cc3cc4ccccc4nc3-2)O1 (some centres not stated)
Output: no

Task: Next molecule up: CC[C@H](C)C(=O)O[C@H]1CCC=C2C=C[C@H](C)[C@H](CC[C@@H]3CC=CC(=O)O3)[C@H]21
Output: no

Task: Param item: O=CN(SSN(C=O)C1CCCCC1)C1CCCCC1
Output: no

Task: // next record CC1=C(C)C(=O)C(Nc2cccc(C(=O)OC(C)(C)C)c2)=C(Br)C1=O
Output: no

Task: Could you do the same for Cc1ccc2c(n1)C(=O)C(Cl)=C(Nc1ccccc1C(C)C)C2=O , please?
Output: no

Task: # repeat for CCc1ccc2nc(NC(=O)Cc3csc(NC(=O)c4ccco4)n3)sc2c1
Output: no

Task: Same read-out for CC([C@H]1CCC2C3CCC4C[C@@H](NC=O)CC[C@]4(C)C3CC[C@@]21C)N(C)C (some centres not stated) ?
Output: yes

Task: Quick one: COc1ccc(CN2c3ccccc3Sc3ccccc32)c(F)c1
Output: no

Task: Thanks! And C=C1C(=O)O[C@H]2[C@H]1CC/C(COC(=O)C(C)c1ccc(CC(C)C)cc1)=C\CC[C@@]1(C)O[C@@H]21 (some centres not stated) ?
Output: no

Task: What do we get for COc1ccc2c(c1)C(C)Cc1c(ncnc1-n1c(C)nc3ccccc31)N2C (configuration not stated) ?
Output: no

Task: Lookup NCCOc1ncccc1/C=C1\C2C=CC=CC2C2C=CC(F)=CC12 (configuration not stated)
Output: no

Task: Next record, please: Cc1cc(=O)oc2cc(OC(=O)CN3CCN(C)CC3)ccc12
Output: no

Task: Another molecule to look at: Cc1cc2nc3cc(C)c(N)cc3[n+](-c3ccccc3)c2cc1N
Output: no

Task: Quick one: O=C(Nc1ccc(Cl)cc1F)c1cc(Cl)ccc1O
Output: yes

Task: # repeat for CCOC(=O)c1cnn2c3ccccc3n(S(=O)(=O)c3ccc(OC)cc3)c12
Output: no

Task: Also, Cc1cc(C)c(-c2c(N)cc(Br)cc2Br)c(N)c1 please.
Output: no

Task: Param item: Oc1c(I)cc(I)cc1CNCCCN(Cc1ccccn1)Cc1ccccn1
Output: yes

Task: Would you kindly repeat that for CSc1ncccc1C(=O)OCC(=O)Nc1oc(C)c2c(C)n[nH]c(=O)c12 ?
Output: no

Task: Please do the same for C#Cc1cccc(NC(=O)Nc2ccccc2NC(=O)CCl)c1 as well.
Output: yes

Task: Now the same for Cc1ccc(-c2nc(N3CCN(CC(=O)Nc4ccc(Cl)c(C(F)(F)F)c4)CC3)c3ccccc3n2)cc1
Output: no

Task: Would you kindly repeat that for O=C1CCC/C=C\C[C@H]2C=CC(=O)/C2=C/C[C@H](CCc2cccc(C(F)(F)F)c2)O1 ?
Output: no

Task: And what about the molecule CCCCNc1nc(NN2C(=O)c3cccc4cccc(c34)C2=O)nc(-n2cnc3ccccc32)n1 ?
Output: no

Task: Same for Cc1nc2ccccc2n1CC1C(=O)NC(=O)NC1=O
Output: no

Task: Subsequent entry: COc1cc(/C=C/c2c(C(C)=O)c(C)nc3ccccc23)cc(OC)c1OC
Output: no

Task: Now this one: COc1cc(C(=O)c2cc(C)c3[nH]c4ccc(C)cc4c3c2C)cc(OC)c1OC
Output: no

Task: Next molecule: COc1cc(C2CC(c3ccc(N(C)C)cc3)=NN2C(C)=O)cc(OC)c1OC (configuration not stated)
Output: no

Task: Entry to check: Cn1cc(C(=O)c2nc(-c3cn(C)c4ccc(F)cc34)no2)c2cc(F)ccc21
Output: no

Task: Next up: Fc1cc(-c2nnc3sc(-c4ccc(Cl)cc4Cl)nn23)c(Cl)cc1Cl
Output: no

Task: Now the molecule COc1ccc(-c2nn(C(=O)c3cc(OC)c(OC)c(OC)c3)c3cc(N)ccc23)cc1
Output: no

Task: Follow-up item: CCOC(=O)C1=C(N)Oc2c(sc3c(C)cccc23)C1c1ccc(OC)cc1 (configuration not stated)
Output: yes

Task: Let us now turn to CCS(=O)(=O)c1ncnc2nc[nH]c12
Output: no

Task: Also check CCN(CC)CCNc1nc2ccccc2c2c(=O)c3cc(Cl)ccc3sc12
Output: no

Task: Would you kindly repeat that for O=C1CSC(c2c(Cl)cccc2Cl)N1c1nc(Cl)cc(=O)[nH]1 (configuration not stated) ?
Output: no

Task: What do we get for C=CCc1cc(C)ccc1NC(C(=O)NCC(=O)OC)c1ccccc1 (configuration not stated) ?
Output: no

Task: How about this molecule: CCOC(=O)c1cn2ncnc(Oc3ccc(NC(=O)NCCN4CCOCC4)c(Cl)c3)c2c1C
Output: no

Task: Same question, CC(=O)CC(c1cccs1)c1c(-c2ccccc2)[nH]c2ccccc12 (configuration not stated) this time
Output: no
